# Tested on: P388 leukemia ip, CD2F1 mice, survival T/C
# experimentSummary: NCI In Vivo Anticancer Drug Screen. Data for tumor model P388 Leukemia (intraperitoneal) in CD2F1 (CDF1) mice
# conditionParameters: endpoint: median survival time; dose: 100.0 mg/kg/injection; schedule: Q01DX005 (ip); vehicle: saline with Tween-80; higher = longer survival
Inconclusive results and toxic doses are left out.
measurementType: T/C

molecule=COC(=O)c1c(-c2ccc(OC)c(OC)c2)cn(C)c1C measurementtype=T/C resultvalue="96 % of control"
molecule=O=c1c2ccccc2oc2nc3ccc(Cl)cc3n12 measurementtype=T/C resultvalue="101 % of control"
molecule=O=S(=O)(Nc1nccs1)c1ccc(NCc2c3ccccc3nc3cc(Cl)ccc23)cc1 measurementtype=T/C resultvalue="88 % of control"
molecule="NC(COC(=O)c1ccccc1)C(=O)O (stereo unspecified)" measurementtype=T/C resultvalue="98 % of control"
molecule=COc1ccc(CN2CCCN(Cc3ccc(OC)cc3)P2(=O)Nc2ccc(OC)cc2)cc1 measurementtype=T/C resultvalue="100 % of control"
molecule=CCCCCOc1ccc(C(=O)Oc2ccc(N=Nc3nccs3)cc2)cc1 measurementtype=T/C resultvalue="101 % of control"

###

Examples of compounds with documented T/C follow.
# System: P388 leukemia ip, CD2F1 mice, survival T/C
# experimentSummary: NCI In Vivo Anticancer Drug Screen. Data for tumor model P388 Leukemia (intraperitoneal) in CD2F1 (CDF1) mice
# conditionParameters: endpoint: median survival time; dose: 25.0 mg/kg/injection; schedule: Q04DX003 (ip); vehicle: saline with Tween-80; higher = longer survival
Toxic doses and inconclusive results are not listed.
measurementType: T/C

compound="CCCC(C)C/C(C)=C/C(C)(C)C(CC(=O)N1CCOCC1)C(=O)O (stereo unspecified)" measurementtype=T/C resultvalue="100 % of control"
compound="CC(=O)[C@]1(O)Cc2c(O)c3c(c(O)c2C(OC2CC(N=[N+]=[N-])C(O)[C@@H](CN=[N+]=[N-])O2)C1)C(=O)c1c(O)cccc1C3=O (stereo partly specified)" measurementtype=T/C resultvalue="96 % of control"
compound=CCCCn1cnc2c(=S)nc(N)[nH]c21 measurementtype=T/C resultvalue="109 % of control"
compound=CNCCCCCc1cc(-c2ccc([N+](=O)[O-])cc2)n[nH]1 measurementtype=T/C resultvalue="103 % of control"
compound=O=c1cc(-c2ccccc2)[nH]c(=O)[nH]1 measurementtype=T/C resultvalue="99 % of control"
compound=c1ccc(-c2csnn2)cc1 measurementtype=T/C resultvalue="99 % of control"
compound="Nc1ncnc2c1c(C(=O)O)cn2C1OC(CO)C(O)C1O (stereo unspecified)" measurementtype=T/C resultvalue="120 % of control"
compound=C=CCCCCCCCCC(=O)N(CCOC)CCOC measurementtype=T/C resultvalue="100 % of control"
compound=COC(=O)NC(=S)Nc1nnc(C)s1 measurementtype=T/C resultvalue="103 % of control"
compound=ClCc1ccc(Cl)c(Cl)c1Cl measurementtype=T/C resultvalue="100 % of control"
compound="CC(=O)OCC1OC(OC2=C(CC=C(C)C)C(=O)c3ccccc3C2=O)C(OC(C)=O)C(OC(C)=O)C1OC(C)=O (stereo unspecified)" measurementtype=T/C resultvalue="100 % of control"

###

# Test system: P388 leukemia ip, CD2F1 mice, survival T/C
# experimentSummary: NCI In Vivo Anticancer Drug Screen. Data for tumor model P388 Leukemia (intraperitoneal) in CD2F1 (CDF1) mice
# conditionParameters: endpoint: median survival time; dose: 200.0 mg/kg/injection; schedule: Q01DX005 (ip); vehicle: saline with Tween-80; higher = longer survival
Inconclusive results and toxic doses are left out. Peptide text beside a SMILES is read from it. * marks the point of attachment. Cbz = O=C(OCc1ccccc1)*
measurementType: T/C

molecule=c1ccc(CNc2ncccn2)nc1 resultvalue="100 % of control"
molecule=O=C(N/N=C/c1ccc(O)c(O)c1)c1ccccc1 resultvalue="119 % of control"
molecule=CC(C)N(C(=O)c1ncccc1C(=O)c1ccccn1)C(C)C resultvalue="94 % of control"
molecule=O=C(O)CCCc1ccc2c(c1)OCO2 resultvalue="106 % of control"
molecule=CCOC(=O)CC1=CSC(=C(C(=O)OCC)C(=O)OCC)N1c1ccccc1 resultvalue="86 % of control"
molecule="CC(C)C(NC(=O)OC(C)(C)C)C(=O)NC(CC(=O)OCc1ccccc1)C(=O)OCc1ccccc1 (configuration not stated)" resultvalue="91 % of control"
molecule=CSC(=S)N/N=C(\Cc1ccccc1)c1ccccn1 resultvalue="107 % of control"
molecule="CC(C)C(NC(=O)OCc1ccccc1)C(=O)NC(Cc1c[nH]c2ccccc12)C(=O)O (configuration not stated)" resultvalue="95 % of control"
molecule="CC(C)CC(NC(=O)C(Cc1ccccc1)NC(=O)OCc1ccccc1)C(=O)NC(C)C(=O)O (stereo not drawn) (Cbz-Phe-Leu-Ala-OH; configuration not given here)" resultvalue="104 % of control"
molecule=O=P1(c2ccccc2)C=C(c2ccccc2)NC(c2ccccc2)=C1 resultvalue="90 % of control"
molecule="CCOC(=O)CC1CCCN1Sc1ccc([N+](=O)[O-])cc1[N+](=O)[O-] (configuration not stated)" resultvalue="100 % of control"
molecule=CCOc1cc2c(cc1Cc1ccc3c(c1)OCO3)OCO2 resultvalue="107 % of control"
